The reported measurements were obtained from ChEMBL document CHEMBL4819081.

# System: MDA-MB-231
# assay explanation: Antiproliferative activity against human MDA-MB-231 cells assessed as reduction in cell viability after 72 hrs by MTT assay
# Assay type: functional, cell-based
# cond: MDA-MB-231, 72 h
pIC50: −log10 of the molar value.
reported metric: pIC50

• CC(=O)c1c(C)c2cnc(Nc3ccc(N4CCN(CC(=O)NCCCNC(=O)CCl)CC4)cn3)nc2n(C2CCCC2)c1=O = 5.11

P = CCC(=O)N1CCN(c2ccc(Nc3ncc4c(C)c(C(C)=O)c(=O)n(C5CCCC5)c4n3)nc2)CC1
Q = CC(=O)c1c(C)c2cnc(Nc3ccc(N4CCNCC4)cn3)nc2n(C2CCCC2)c1=O [PALBOCICLIB]
R = C=CC(=O)NCCCNC(=O)CCN1CCN(c2ccc(Nc3ncc4c(C)c(C(C)=O)c(=O)n(C5CCCC5)c4n3)nc2)CC1
S = CC(=O)c1c(C)c2cnc(Nc3ccc(N4CCN(C(=O)CCl)CC4)cn3)nc2n(C2CCCC2)c1=O
T = CC(=O)c1c(C)c2cnc(Nc3ccc(N4CCN(CC(=O)NCCCCNC(=O)CCl)CC4)cn3)nc2n(C2CCCC2)c1=O
Ask: Exam item: list the entries in increasing order of pIC50. // list labels; follow requested order
Reply: P, R, T, Q, S

----------
# measurement target: CDK6/cyclin D3 (Homo sapiens)
# Sequence (P30281 whole entry): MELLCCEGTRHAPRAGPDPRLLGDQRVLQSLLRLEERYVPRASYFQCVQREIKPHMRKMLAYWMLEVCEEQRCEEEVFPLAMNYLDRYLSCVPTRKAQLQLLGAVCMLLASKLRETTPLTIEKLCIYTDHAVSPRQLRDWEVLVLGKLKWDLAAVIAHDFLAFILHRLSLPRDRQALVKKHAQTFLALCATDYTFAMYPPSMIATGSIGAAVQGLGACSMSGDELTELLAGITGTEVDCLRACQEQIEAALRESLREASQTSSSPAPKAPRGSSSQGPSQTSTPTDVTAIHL
# Sequence (Q00534 whole entry): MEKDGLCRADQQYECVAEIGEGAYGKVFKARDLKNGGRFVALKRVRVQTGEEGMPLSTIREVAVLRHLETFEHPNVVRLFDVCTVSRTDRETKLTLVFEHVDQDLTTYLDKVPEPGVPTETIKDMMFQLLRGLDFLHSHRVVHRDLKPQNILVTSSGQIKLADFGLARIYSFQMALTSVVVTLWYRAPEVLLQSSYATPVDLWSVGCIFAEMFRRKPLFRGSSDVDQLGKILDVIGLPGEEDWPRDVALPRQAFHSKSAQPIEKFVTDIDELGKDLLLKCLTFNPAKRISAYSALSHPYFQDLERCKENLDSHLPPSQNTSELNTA
# assay explanation: Inhibition of CDK6/Cyclin D3 (unknown origin) by mobility shift assay
reported metric: IC50 (nM)
Give just the numeric value; nM need not be written.

Ask: Item "CC(=O)c1c(C)c2cnc(Nc3ccc(N4CCN(C(=O)CCl)CC4)cn3)nc2n(C2CCCC2)c1=O" has what recorded IC50?
Reply: 14

----------
# measurement target: Cyclin-dependent kinase 4/cyclin D1 (Homo sapiens) (UniProt P11802+P24385)
# assay explanation: Inhibition of CDK4/Cyclin D1 (unknown origin) at 200 nM using ATP by mobility shift assay
# Type: protein-complex assay
reported metric: inhibition (%)

- CC(=O)c1c(C)c2cnc(Nc3ccc(N4CCN(CC(=O)NCCOCCNC(=O)CCl)CC4)cn3)nc2n(C2CCCC2)c1=O: 92.7
- CC(=O)c1c(C)c2cnc(Nc3ccc(N4CCN(C(=O)CCl)CC4)cn3)nc2n(C2CCCC2)c1=O: 93.8
- CC(=O)c1c(C)c2cnc(Nc3ccc(N4CCN(CC(=O)NCCCCNC(=O)CCl)CC4)cn3)nc2n(C2CCCC2)c1=O: 94.8
- CC(=O)c1c(C)c2cnc(Nc3ccc(N4CCN(C(C)=O)CC4)cn3)nc2n(C2CCCC2)c1=O: 87.8

----------
# Tested on: MDA-MB-231
# assay explanation: Antiproliferative activity against human MDA-MB-231 cells assessed as reduction in cell viability after 72 hrs by MTT assay
# Format: functional, cell-based
# cond: MDA-MB-231, 72 h
reported metric: IC50

* C=CC(=O)NCCNC(=O)CCN1CCN(c2ccc(Nc3ncc4c(C)c(C(C)=O)c(=O)n(C5CCCC5)c4n3)nc2)CC1 | > 20 µM
* CC(=O)c1c(C)c2cnc(Nc3ccc(N4CCN(CCC(=O)NCCCCCCNC(=O)CCl)CC4)cn3)nc2n(C2CCCC2)c1=O | > 20 µM
* CC(=O)c1c(C)c2cnc(Nc3ccc(N4CCN(CC(=O)NCCOCCOCCNCC#N)CC4)cn3)nc2n(C2CCCC2)c1=O | > 20 µM
* CC(=O)c1c(C)c2cnc(Nc3ccc(N4CCN(C(C)=O)CC4)cn3)nc2n(C2CCCC2)c1=O | > 50 µM
* CC(=O)c1c(C)c2cnc(Nc3ccc(N4CCN(CCC(=O)NCCCCCCNCC#N)CC4)cn3)nc2n(C2CCCC2)c1=O | > 20 µM

Ask: Find the measured IC50: item "CC(=O)c1c(C)c2cnc(Nc3ccc(N4CCN(CC(=O)NCCOCCNC(=O)CCl)CC4)cn3)nc2n(C2CCCC2)c1=O" , target or system MDA-MB-231.
Reply: > 20 µM

Ask: Request body: readout IC50, system MDA-MB-231, query "CC(=O)c1c(C)c2cnc(Nc3ccc(N4CCN(CCC(=O)NCCOCCOCCNCC#N)CC4)cn3)nc2n(C2CCCC2)c1=O" . Return the value.
Reply: > 20 µM

Ask: Notebook: pull reported IC50 for MDA-MB-231, entry "CC(=O)c1c(C)c2cnc(Nc3ccc(N4CCN(CCC(=O)NCCOCCOCCNC(=O)CCl)CC4)cn3)nc2n(C2CCCC2)c1=O"
Reply: 8.92 µM

Ask: Lookup: IC50 / MDA-MB-231 / "CC(=O)c1c(C)c2cnc(Nc3ccc(N4CCN(CCC(=O)NCCCCNC(=O)CCl)CC4)cn3)nc2n(C2CCCC2)c1=O"
Reply: > 20 µM

Ask: Give the reported IC50 for "CC(=O)c1c(C)c2cnc(Nc3ccc(N4CCN(CC(=O)NCCNC(=O)CCl)CC4)cn3)nc2n(C2CCCC2)c1=O" (system: MDA-MB-231).
Reply: 10.2 µM

----------
# measurement target: CDK6/cyclin D3 (Homo sapiens) (UniProt P30281+Q00534)
# assay explanation: Inhibition of CDK6/Cyclin D3 (unknown origin) at 20 nM using ATP by mobility shift assay
# Format: protein-complex assay
reported metric: inhibition (%)

* CC(=O)c1c(C)c2cnc(Nc3ccc(N4CCN(CC(=O)NCCNC(=O)CCl)CC4)cn3)nc2n(C2CCCC2)c1=O | 81.6
* CC(=O)c1c(C)c2cnc(Nc3ccc(N4CCN(CCC(=O)NCCCNC(=O)CCl)CC4)cn3)nc2n(C2CCCC2)c1=O | 79
* CC(=O)c1c(C)c2cnc(Nc3ccc(N4CCN(C(=O)CCl)CC4)cn3)nc2n(C2CCCC2)c1=O | 81.6

----------
# measurement target: Cyclin-dependent kinase 4/cyclin D1 (Homo sapiens) (UniProt P11802+P24385)
# assay explanation: Inhibition of CDK4/Cyclin D1 (unknown origin) at 20 nM using ATP by mobility shift assay
# Type: protein-complex assay
reported metric: inhibition (%)

* CC(=O)c1c(C)c2cnc(Nc3ccc(N4CCN(CCC(=O)NCCOCCNC(=O)CCl)CC4)cn3)nc2n(C2CCCC2)c1=O | 60.5
* CC(=O)c1c(C)c2cnc(Nc3ccc(N4CCN(C(=O)CCl)CC4)cn3)nc2n(C2CCCC2)c1=O | 61.7
* CC(=O)c1c(C)c2cnc(Nc3ccc(N4CCN(CC(=O)NCCNC(=O)CCl)CC4)cn3)nc2n(C2CCCC2)c1=O | 60.8

----------
# Tested on: MDA-MB-453
# assay explanation: Antiproliferative activity against human MDA-MB-453 cells assessed as reduction in cell viability after 72 hrs by MTT assay
# Type: functional, cell-based
# cond: MDA-MB-453, 72 h
Measured IC50, listed per entry for reference.

Completed entries (count: 2):
* C=CC(=O)NCCNC(=O)CN1CCN(c2ccc(Nc3ncc4c(C)c(C(C)=O)c(=O)n(C5CCCC5)c4n3)nc2)CC1 | > 20 µM
* CC(=O)c1c(C)c2cnc(Nc3ccc(N4CCN(CC#N)CC4)cn3)nc2n(C2CCCC2)c1=O | > 20 µM

Turning now to a further record.
Ask: Fill in: IC50 of "C=CC(=O)NCCCNC(=O)CN1CCN(c2ccc(Nc3ncc4c(C)c(C(C)=O)c(=O)n(C5CCCC5)c4n3)nc2)CC1" is ___
Reply: > 20 µM

----------
# measurement target: Cyclin-dependent kinase 4/cyclin D1 (Homo sapiens) (UniProt P11802+P24385)
# assay explanation: Inhibition of CDK4/Cyclin D1 (unknown origin) at 200 nM using ATP by mobility shift assay
# Format: protein-complex assay
reported metric: inhibition (%)

• CC(=O)c1c(C)c2cnc(Nc3ccc(N4CCN(CCC(=O)NCCCNC(=O)CCl)CC4)cn3)nc2n(C2CCCC2)c1=O = 93.1
• CC(=O)c1c(C)c2cnc(Nc3ccc(N4CCN(CC(=O)NCCCCCCNC(=O)CCl)CC4)cn3)nc2n(C2CCCC2)c1=O = 90.9
• CCC(=O)N1CCN(c2ccc(Nc3ncc4c(C)c(C(C)=O)c(=O)n(C5CCCC5)c4n3)nc2)CC1 = 91.4
• CC(=O)c1c(C)c2cnc(Nc3ccc(N4CCN(CC(=O)NCCCNC(=O)CCl)CC4)cn3)nc2n(C2CCCC2)c1=O = 91.7
• CC(=O)c1c(C)c2cnc(Nc3ccc(N4CCN(CCC(=O)NCCOCCNC(=O)CCl)CC4)cn3)nc2n(C2CCCC2)c1=O = 94.4

----------
# Test system: MDA-MB-453
# assay explanation: Antiproliferative activity against human MDA-MB-453 cells assessed as reduction in cell viability after 72 hrs by MTT assay
# Format: functional, cell-based
# cond: MDA-MB-453, 72 h
pIC50: −log10 of the molar value.
reported metric: pIC50

- CC(=O)c1c(C)c2cnc(Nc3ccc(N4CCN(CC(=O)NCCNCC#N)CC4)cn3)nc2n(C2CCCC2)c1=O: 5.00

P = CC(=O)c1c(C)c2cnc(Nc3ccc(N4CCN(CC(=O)NCCCCNC(=O)CCl)CC4)cn3)nc2n(C2CCCC2)c1=O
Q = CC(=O)c1c(C)c2cnc(Nc3ccc(N4CCN(CCC(=O)NCCCNC(=O)CCl)CC4)cn3)nc2n(C2CCCC2)c1=O
Ask: Of P and Q , which carries the smaller reported pIC50 figure? To answer, give the label that identifies your chosen option.
Reply: P
